Values compiled from ChEMBL document CHEMBL1201862.

subject of test: Caspase-3 (Homo sapiens)
Sequence (P42574 29-175 limits assumed): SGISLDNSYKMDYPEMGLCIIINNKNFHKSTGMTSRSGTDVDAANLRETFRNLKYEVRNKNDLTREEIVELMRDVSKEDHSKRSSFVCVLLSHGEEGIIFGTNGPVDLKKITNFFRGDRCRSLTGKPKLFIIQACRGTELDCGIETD
Sequence (P42574 176-277 limits assumed): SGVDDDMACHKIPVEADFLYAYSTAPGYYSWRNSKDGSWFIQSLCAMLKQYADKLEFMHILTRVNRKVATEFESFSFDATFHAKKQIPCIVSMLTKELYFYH
assay protocol: SAR Analysis of small molecule inhibitors of Sentrin-specific proteases (SENPs) using a Caspase-3 Selectivity assay. [Related pubchem assays (depositor defined):AID2540, AID2599, AID434973, AID489001]
Type: functional
Calls of active or inactive are those of the source. Rule as the data show it: actives have a measured IC50 and inactives only a lower limit.
Pick one: active, inactive

So what was the verdict on NC(=O)c1ccc(NC(=O)c2ccc3c(c2)OCO3)cc1 in this test?
active

So what was the verdict on COC(=O)c1ccccc1NC1=C/C(=N/S(=O)(=O)c2cccs2)c2ccccc2C1=O in this test?
active

So what was the verdict on CN(C)c1ccc(/C=C/c2noc(-c3ccccc3O)n2)cc1 in this test?
active

So what was the verdict on Brc1ccc(-c2nc(/C=C/c3ccccc3)no2)cc1 in this test?
inactive
